Species on record: Rattus norvegicus
experiment_description: DrugMatrix - Regimen: Daily Repeat
Format: toxicity, organism-based, Sprague-Dawley
Parameters: regimen Daily Repeat, gender Male, age 6-8 weeks
condition_parameters: in vivo, po, 0 mg/kg, 120 h, tissue Plasma, route oral GAVAGE, dose level Control, time 5 day, vehicle .5 % CMC
quantity_kind: ALKALINE PHOSPHATASE (u/L)
Number only, in u/L; omit the unit.

[ask] Requested field: ALKALINE PHOSPHATASE. Item: C[C@@H]1CC[C@H]2[C@@H](C)C(=O)O[C@@H]3O[C@@]4(C)CC[C@@H]1[C@]32OO4
[reply] 352.33

[ask] Requested field: ALKALINE PHOSPHATASE. Item: CC(=O)O[C@]1(C(C)=O)CC[C@H]2[C@@H]3C=C(Cl)C4=CC(=O)[C@@H]5C[C@@H]5[C@]4(C)[C@H]3CC[C@@]21C [CYPROTERONE ACETATE]
[reply] 337

[ask] Requested field: ALKALINE PHOSPHATASE. Item: CN1C(=O)CN=C(c2ccccc2)c2cc(Cl)ccc21
[reply] 373.17

[ask] Requested field: ALKALINE PHOSPHATASE. Item: CCOC(=O)[C@H](CCc1ccccc1)N[C@@H](C)C(=O)N1Cc2ccccc2C[C@H]1C(=O)O
[reply] 337

[ask] Requested field: ALKALINE PHOSPHATASE. Item: CO[C@H]1C[C@@H]2CC[C@@H](C)[C@@](O)(O2)C(=O)C(=O)N2CCCC[C@H]2C(=O)O[C@H]([C@H](C)C[C@@H]2CC[C@@H](O)[C@H](OC)C2)CC(=O)[C@H](C)/C=C(\C)[C@@H](O)[C@@H](OC)C(=O)[C@H](C)C[C@H](C)/C=C/C=C/C=C/1C
[reply] 356.67

[ask] Requested field: ALKALINE PHOSPHATASE. Item: COc1ccccc1OCC(O)COC(N)=O (configuration not stated)
[reply] 352.33

[ask] Requested field: ALKALINE PHOSPHATASE. Item: Nc1cccc(Cl)c1
[reply] 348.17

====

Organism: Rattus norvegicus
experiment_description: DrugMatrix - Regimen: Daily Repeat
Assay type: toxicity, organism-based, Sprague-Dawley
Design: regimen Daily Repeat, gender Male, age 6-8 weeks
condition_parameters: in vivo, po, 0 mg/kg, 72 h, tissue Blood, route oral GAVAGE, dose level Control, time 3 day, […]
I'd appreciate it if you could supply ABSOLUTE MONOCYTE values for the items below.
Number only, in CELLS/uL; omit the unit.

[ask] Requested field: ABSOLUTE MONOCYTE. Item: CCn1cc(C(=O)O)c(=O)c2cc(F)c(N3CCNCC3)nc21
[reply] 292

[ask] Requested field: ABSOLUTE MONOCYTE. Item: CC(=O)Nc1nnc(S(N)(=O)=O)s1 [ACETAZOLAMIDE]
[reply] 240

[ask] Requested field: ABSOLUTE MONOCYTE. Item: CC[C@H](C)C(=O)O[C@H]1C[C@@H](C)C=C2C=C[C@H](C)[C@H](CC[C@@H]3C[C@@H](O)CC(=O)O3)[C@H]21
[reply] 155.67

[ask] Requested field: ABSOLUTE MONOCYTE. Item: COc1ncnc(NS(=O)(=O)c2ccc(N)cc2)c1OC
[reply] 240

[ask] Requested field: ABSOLUTE MONOCYTE. Item: NC[C@@H]1O[C@H](O[C@H]2[C@@H](O)[C@H](O[C@@H]3[C@@H](O)[C@H](N)C[C@H](N)[C@H]3O[C@H]3O[C@H](CN)[C@@H](O)[C@H](O)[C@H]3N)O[C@@H]2CO)[C@H](N)[C@@H](O)[C@@H]1O
[reply] 80.17

[ask] Requested field: ABSOLUTE MONOCYTE. Item: C#C[C@]1(O)CC[C@H]2[C@@H]3CCc4cc(O)ccc4[C@H]3CC[C@@]21C
[reply] 292

[ask] Requested field: ABSOLUTE MONOCYTE. Item: CC(C)Cc1ccc(CC(=O)O)cc1
[reply] 307.5

[ask] Requested field: ABSOLUTE MONOCYTE. Item: OCCN1CCN(CCCN2c3ccccc3Sc3ccc(C(F)(F)F)cc32)CC1
[reply] 40.67

[ask] Requested field: ABSOLUTE MONOCYTE. Item: CN(CCOc1ccc(CC2SC(=O)NC2=O)cc1)c1ccccn1 (stereo unspecified)
[reply] 22.5

[ask] Requested field: ABSOLUTE MONOCYTE. Item: CC[C@H](C)C(=O)O[C@H]1C[C@H](O)C=C2C=C[C@H](C)[C@H](CC[C@@H](O)C[C@@H](O)CC(=O)O)[C@H]21
[reply] 22.5

====

I'd appreciate it if you could supply BLOOD UREA NITROGEN values for the items below.
Species on record: Rattus norvegicus
experiment_description: DrugMatrix - Regimen: Daily Repeat
Assay type: toxicity, organism-based, Sprague-Dawley
Set-up: regimen Daily Repeat, gender Male, age 6-8 weeks
condition_parameters: in vivo, po, 0 mg/kg, 72 h, tissue Plasma, route oral GAVAGE, dose level Control, time 3 day, vehicle .5 % CMC
Number only, in mg/dL; omit the unit.

[ask] Requested field: BLOOD UREA NITROGEN. Item: COc1ccccc1OCC(O)COC(N)=O (stereo not drawn)
[reply] 17.33

[ask] Requested field: BLOOD UREA NITROGEN. Item: O=c1cc(-c2ccccc2)oc2ccc3ccccc3c12
[reply] 15

[ask] Requested field: BLOOD UREA NITROGEN. Item: CCCCC1C(=O)N(c2ccccc2)N(c2ccccc2)C1=O
[reply] 13.67

====

Species on record: Rattus norvegicus
experiment_description: DrugMatrix - Regimen: Daily Repeat
Format: toxicity, organism-based, Sprague-Dawley
Parameters: regimen Daily Repeat, gender Male, age 6-8 weeks
condition_parameters: in vivo, po, 0 mg/kg, 72 h, tissue Plasma, route oral GAVAGE, dose level Control, time 3 day, […]
quantity_kind: POTASSIUM (MEQ/L)
Number only, in MEQ/L; omit the unit.

[ask] Requested field: POTASSIUM. Item: CC(C)Cc1ccc(CC(=O)O)cc1 [IBUFENAC]
[reply] 6.65

[ask] Requested field: POTASSIUM. Item: CN(CCOc1ccc(CC2SC(=O)NC2=O)cc1)c1ccccn1 (stereo not drawn) [ROSIGLITAZONE]
[reply] 5.03

[ask] Requested field: POTASSIUM. Item: COc1ncnc(NS(=O)(=O)c2ccc(N)cc2)c1OC [SULFADOXINE]
[reply] 5.56

====

Organism: Rattus norvegicus
experiment_description: DrugMatrix - Regimen: Daily Repeat
Format: toxicity, organism-based, Sprague-Dawley
Set-up: regimen Daily Repeat, gender Male, age 6-8 weeks
condition_parameters: in vivo, po, 0 mg/kg, 120 h, tissue Blood, route oral GAVAGE, dose level Control, time 5 day, vehicle 100 % WATER
quantity_kind: HEMATOCRIT (%)
Number only, in %; omit the unit.

[ask] Requested field: HEMATOCRIT. Item: Nc1ccc(S(=O)(=O)Nc2nccs2)cc1
[reply] 34.72

[ask] Requested field: HEMATOCRIT. Item: O=P1(N(CCCl)CCCl)NCCCO1 (stereo not given) [CYCLOPHOSPHAMIDE ANHYDROUS]
[reply] 33.53

[ask] Requested field: HEMATOCRIT. Item: CN1C2CCCC1CC(NC(=O)c1nn(C)c3ccccc13)C2 (stereo not given)
[reply] 34.72

[ask] Requested field: HEMATOCRIT. Item: O=C(O)c1cc(=O)c2c(OCC(O)COc3cccc4oc(C(=O)O)cc(=O)c34)cccc2o1
[reply] 36.88

[ask] Requested field: HEMATOCRIT. Item: CCN[C@@H](C)Cc1cccc(C(F)(F)F)c1
[reply] 36.48

====

Species on record: Rattus norvegicus
experiment_description: DrugMatrix - Regimen: Daily Repeat
Type: toxicity, organism-based, Sprague-Dawley
Design: regimen Daily Repeat, gender Male, age 6-8 weeks
condition_parameters: in vivo, po, 1500 mg/kg, 72 h, tissue Blood, route oral GAVAGE, dose level High, time 3 day, vehicle .5 % CMC
quantity_kind: ABSOLUTE SEGMENTED NEUTROPHIL (CELLS/uL)
Number only, in CELLS/uL; omit the unit.

[ask] Requested field: ABSOLUTE SEGMENTED NEUTROPHIL. Item: CCOC(=O)[C@H](CCc1ccccc1)N[C@@H](C)C(=O)N1CCC[C@H]1C(=O)O
[reply] 1494.67

[ask] Requested field: ABSOLUTE SEGMENTED NEUTROPHIL. Item: Nc1nc2c(c(=O)[nH]1)N(C=O)C(CNc1ccc(C(=O)N[C@@H](CCC(=O)O)C(=O)O)cc1)CN2 (some centres undefined) [LEUCOVORIN]
[reply] 2253.33

[ask] Requested field: ABSOLUTE SEGMENTED NEUTROPHIL. Item: C[C@@H](O)[C@H]1C(=O)N2C(C(=O)O)=C(S[C@@H]3CN[C@H](C(=O)N(C)C)C3)[C@H](C)[C@H]12 [MEROPENEM]
[reply] 841.33

[ask] Requested field: ABSOLUTE SEGMENTED NEUTROPHIL. Item: CC(C)(Sc1cc(C(C)(C)C)c(O)c(C(C)(C)C)c1)Sc1cc(C(C)(C)C)c(O)c(C(C)(C)C)c1 [PROBUCOL]
[reply] 1443.67
